biological target: human IP6K3 (Homo sapiens, UniProt Q96PC2); construct: human IP6K3 (1-410) gene; made in house; host or cells: BL21 (DE3) Escherichia coli; test: IP6K enzyme inhibitory assay (ADP-Glo Kinase Assay), human IP6K3; format: biochemical; conditions: compound concentration 0.1 μM; read-out: ADP-Glo method inhibitory rate (%) human IP6K3
Sequence (Q96PC2 whole entry): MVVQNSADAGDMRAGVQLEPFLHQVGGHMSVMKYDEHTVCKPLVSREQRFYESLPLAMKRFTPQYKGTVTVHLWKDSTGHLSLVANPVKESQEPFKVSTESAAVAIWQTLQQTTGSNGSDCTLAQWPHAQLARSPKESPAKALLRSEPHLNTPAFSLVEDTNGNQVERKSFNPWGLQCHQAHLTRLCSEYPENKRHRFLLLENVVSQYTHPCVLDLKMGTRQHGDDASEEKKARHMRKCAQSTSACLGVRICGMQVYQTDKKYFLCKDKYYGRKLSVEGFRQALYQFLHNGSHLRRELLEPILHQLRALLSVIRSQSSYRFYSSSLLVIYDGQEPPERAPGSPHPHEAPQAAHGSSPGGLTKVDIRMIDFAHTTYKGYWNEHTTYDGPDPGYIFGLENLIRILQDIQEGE
metric-name: inhibition at 0.1 µM (%)

- O=C(O)c1ccc2c(n1)[C@]1(CC[C@@H](Oc3ccc(F)cc3F)CC1)C(=O)N2: 79
- O=C(O)c1ccc2c(c1)[C@]1(CC[C@@H](Oc3ccc(Cl)cc3F)CC1)C(=O)N2: 96
- O=C(O)c1ccc2c(c1)[C@]1(CC[C@@H](Oc3ncc(Cl)cc3C(F)(F)F)CC1)C(=O)N2: 96
- N#Cc1c(F)cccc1O[C@H]1CC[C@@]2(CC1)C(=O)Nc1ccc(C(=O)O)cc12: 96

Data provenance: patent US10968178B2
